- assay system: T1, RXFP4 (relaxin family peptide receptor 4) on CHO-K1-RXFP4 cells (UniProt Q8TDU9 1-374, limits assumed)
- T1 construct: whole, on cells; also called INSL5 receptor
- T1 sequence (Q8TDU9 whole entry): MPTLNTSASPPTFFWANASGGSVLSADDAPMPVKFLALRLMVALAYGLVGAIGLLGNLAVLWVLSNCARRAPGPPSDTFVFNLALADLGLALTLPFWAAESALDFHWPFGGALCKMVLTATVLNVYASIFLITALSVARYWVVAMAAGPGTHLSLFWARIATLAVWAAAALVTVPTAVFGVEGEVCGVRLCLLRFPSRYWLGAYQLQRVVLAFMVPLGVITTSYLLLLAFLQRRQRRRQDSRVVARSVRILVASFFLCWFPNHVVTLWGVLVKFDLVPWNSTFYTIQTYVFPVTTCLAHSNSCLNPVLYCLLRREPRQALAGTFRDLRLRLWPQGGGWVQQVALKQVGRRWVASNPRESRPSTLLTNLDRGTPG
- measurement protocol: competition with Eu-R3/I5 on CHO-K1-RXFP4 cells
Square brackets hold non-standard residues; d marks the D form. Ends that are not written are not given here. αMeF = C[C@](N)(Cc1ccccc1)C(=O)O
value kind: binding result

>>> measurement("RAAPYGVRLSGREFIRAVIFTSR (23 residues) [H3B1-22R (Formula XI, known single chain antagonist of RXFP3)]")
"no binding"
>>> measurement("SGRFFIRFVIFTSR (14 residues) [H3B10-22R13/17FF (Formula XIII, non-alpha-methylated analogue of Formula X)]")
"no binding"
>>> measurement("SGR[αMeF]FIR[αMeF]VIFTSR (14 residues) [H3B10-22R13/17αF (Formula X, RXFP3 antagonist)]")
"no binding"
>>> measurement("SGREFIRAVIFTSR (14 residues) [H3B10-22R13/17EA (Formula XII, truncated form of H3B1-22R)]")
"no binding"
